Answer each item with its documented unfolding free energy.
B1: Tryptophan synthase alpha chain, P0A877 (parent)
chain: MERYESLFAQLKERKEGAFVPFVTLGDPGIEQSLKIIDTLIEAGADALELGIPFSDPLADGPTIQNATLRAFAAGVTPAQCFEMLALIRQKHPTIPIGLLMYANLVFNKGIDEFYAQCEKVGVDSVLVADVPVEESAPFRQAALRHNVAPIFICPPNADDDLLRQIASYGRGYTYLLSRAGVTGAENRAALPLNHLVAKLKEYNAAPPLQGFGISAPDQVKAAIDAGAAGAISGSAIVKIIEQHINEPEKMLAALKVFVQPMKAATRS

variants of: B1; settings: Escherichia coli (strain K12); pH 5.5; 25 °C; GdnHCl; CD; acetate 0.05 M; reversible: yes; structure 1WQ5; whole UniProt chain shown

>  <mutation-code>
E49Q

>  <endpoint-value>
2.8 kcal/mol

$$$$
>  <mutation-code>
E49S

>  <endpoint-value>
3.9 kcal/mol

$$$$
>  <mutation-code>
E49V

>  <endpoint-value>
6.1 kcal/mol

$$$$
>  <mutation-code>
E49Y

>  <endpoint-value>
4.8 kcal/mol

$$$$

Req: Recorded unfolding free energy for E49M , please?
Resp: 5.9 kcal/mol
